Source listed as patent US7112586B2.

- ASSAYED_SYSTEM: Motilin Receptor (Oryctolagus cuniculus)
- Construct: The muscle tissue was homogenized in 10 volumes of 50 mM Tris-Cl; from tissue; host or cells: rabbit colon smooth muscle, crude membrane homogenate
- Sequence (G1T803 1-400): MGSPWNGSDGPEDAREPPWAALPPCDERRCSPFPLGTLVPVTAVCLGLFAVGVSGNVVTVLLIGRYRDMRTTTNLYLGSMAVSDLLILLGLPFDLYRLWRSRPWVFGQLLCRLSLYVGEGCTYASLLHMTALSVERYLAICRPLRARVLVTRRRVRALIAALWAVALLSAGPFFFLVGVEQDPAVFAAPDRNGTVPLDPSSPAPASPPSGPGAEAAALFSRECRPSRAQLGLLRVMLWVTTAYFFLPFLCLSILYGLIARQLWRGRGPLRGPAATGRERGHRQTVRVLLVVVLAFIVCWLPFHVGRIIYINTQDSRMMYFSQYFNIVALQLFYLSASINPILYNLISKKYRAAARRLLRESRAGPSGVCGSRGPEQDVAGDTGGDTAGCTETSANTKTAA
- PROCEDURE_TEXT: Motilin receptor binding, rabbit colon membranes, 125I porcine motilin
- Design: dose or concentration left out as unconfirmed
- TEST_SETTINGS: rabbit colon membranes
ASSAY_METRIC: Rabbit Colon % Inh (%)

// solved cases for Rabbit Colon % Inh follow
- COMPOUND: "O=C(Nc1ccccc1)N(CC1CCCC(N(Cc2cccc(C(F)(F)F)c2)C(=O)C(Cl)(Cl)Cl)C1)c1cccc(OCCN2CCOCC2)c1 (stereo not drawn)"
  ASSAY_RESULT: 58
- COMPOUND: "CN1CCCC1CCOc1cccc(N(CC2CCCC(N(Cc3cccc(Cl)c3)C(=O)C(C)(C)C)C2)C(=O)c2ccc(F)cc2)c1 (racemic)"
  ASSAY_RESULT: 61
- COMPOUND: "O=C(NC1CCCC(CN(C(=O)Nc2ccccc2)c2cccc(OCCN3CCOCC3)c2)C1)c1cc(C(F)(F)F)cc(C(F)(F)F)c1 (stereo not drawn)"
  ASSAY_RESULT: 29

a. CCN(Cc1ccc(C)cc1)C(=O)CCCCN(C(=O)c1ccc(F)cc1)c1cccc(OCCN2CCOCC2)c1
b. Cc1ccc(S(=O)(=O)N(CCCCC(=O)N(Cc2ccccc2)Cc2ccccc2)c2cccc(OCCN3CCOCC3)c2)cc1
c. O=C(c1ccc(F)cc1)N(CC1CCCC(N(Cc2cccc(Cl)c2Cl)C(=O)C(Cl)(Cl)Cl)C1)c1cccc(OCCN2CCOCC2)c1 (stereo not drawn)
Query: Ascending by Rabbit Colon % Inh, please. Write the labels in rank order as requested.
Response: a, b, c
